System: VCAM-1
Assay: ELISA of VCAM-1 expression in TNF-stimulated HUVEC
Type: cell-based, human
Details: 30 nM oligo, TNF-α 16 hours
// values below are reported VCAM-1 EXPRESSION 30 nM oligo (VCAM-1 expression is given as % of control)
endpoint_name: VCAM-1 EXPRESSION 30 nM oligo (VCAM-1 expression is given as % of control)

| substance | result |
| --- | --- |
| ISIS 5876: phosphorothioate, human VCAM-1 CODING 2038-2057, SEQ ID NO 67, CTGTGTCTCCTGTCTCCGCT (DNA, all phosphorothioate, methylation of C not given here) | 43.5 % of control |
| ISIS 3805: phosphorothioate, human VCAM-1 3′-UTR 2826-2845, SEQ ID NO 71, CCCGGCATCTTTACAAAACC (DNA, all phosphorothioate, methylation of C not given here) | 7.7 % of control |
| ISIS 5862: phosphorothioate, human VCAM-1 5′-UTR 48-68, SEQ ID NO 62, CCTGTGTGTGCCTGGGAGGG (DNA, all phosphorothioate, methylation of C not given here) | 115.0 % of control |
| ISIS 3801: phosphorothioate, human VCAM-1 3′-UTR 2872-2892, SEQ ID NO 50, AACCCAGTGCTCCCTTTGCT (DNA, all phosphorothioate, methylation of C not given here) | 36.5 % of control |

Data provenance is patent US6849612B2.
